test system: A. niger 16404; assay: In vitro antifungal activity, MIC (modified Autotiter method); assay type: cell-based, Aspergillus niger; conditions: Aspergillus niger, 16404, 20 h, 18-20 hours at 37° C.; read-out: MIC A. niger 16404
Listed here: items and their measured MIC.
# value in µg/mL; strip the unit string

The examples below pair each entry with its known result.
CCCCCCNc1cc[n+](CCCCCCCC[n+]2ccc(NCCCCCC)cc2)cc1 [Example 32]    7.8
CCCCC(CC)CNc1cc[n+](CCCCCCC[n+]2ccc(NCC(CC)CCCC)cc2)cc1 (stereo not shown) [Example 55]    15.6
CCCCCCCCCCNc1cc[n+](CCCCCCCCCC[n+]2ccc(NCCCCCCCCCC)cc2)cc1 [Example 68]    15.6
CC(CCCCCCCCC[n+]1ccc(N)cc1)[n+]1ccc(N)cc1 (stereo not shown) [VI, reference compound]    250

Data request, read-out MIC, for Clc1ccc(Nc2cc[n+](CCCCC[n+]3ccc(Nc4ccc(Cl)cc4)cc3)cc2)cc1 [Example 80]
62.5

Data request, read-out MIC, for c1c[n+](CCCCC[n+]2ccc(NC3CCCCC3)cc2)ccc1NC1CCCCC1 [Example 35]
500

---

Listed here: items and their measured MIC.
test system: C. albicans Wisc.; assay: In vitro antifungal activity, MIC (modified Autotiter method); assay type: cell-based, Candida albicans; conditions: Candida albicans, 20 h, 18-20 hours at 37° C.; read-out: MIC C. albicans Wisc.
# value in µg/mL; strip the unit string

The examples below pair each entry with its known result.
Clc1ccc(Nc2cc[n+](CCCCC[n+]3ccc(Nc4ccc(Cl)cc4)cc3)cc2)cc1    62.5
CCCCCCCCCNc1cc[n+](CCCCCCCCC[n+]2ccc(NCCCCCCCCC)cc2)cc1    3.9
CCCCCCCCCNc1cc[n+](CCCCCCCC[n+]2ccc(NCCCCCCCCC)cc2)cc1 [Example 29C]    3.9
CCCCCCCNc1cc[n+](CCCCC[n+]2ccc(NCCCCCCC)cc2)cc1    15.6
CCCCCCCCNc1cc[n+](CCCCCCCCCCCC[n+]2ccc(NCCCCCCCC)cc2)cc1    3.9
Clc1ccc(Nc2cc[n+](CCCC[n+]3ccc(Nc4ccc(Cl)cc4)cc3)cc2)cc1 [Example 76C]    12.5

Enter reported MIC observed with C. albicans Wisc. for c1c[n+](CCCCCCCCC[n+]2ccc(NC3CCCCC3)cc2)ccc1NC1CCCCC1
15.6

---

system: S. pyogen. C203; test: In vitro antibacterial activity, MIC (modified Autotiter method); assay type: cell-based, Streptococcus pyogenes; conditions: Streptococcus pyogenes, 20 h, 18-20 hours at 37° C.; read-out: MIC S. pyogen. C203
Listed here: items and their measured MIC.
# value in µg/mL; strip the unit string

CCCCCCCCNc1cc[n+](CCCCCCCCCC[n+]2ccc(NCCCCCCCC)cc2)cc1 [10A,B]    1
CCCCCCCNc1cc[n+](CCCCCCC[n+]2ccc(NCCCCCCC)cc2)cc1 [Example 21]    0.98
CCCCCCNc1cc[n+](CCCCCCCCCCCC[n+]2ccc(NCCCCCC)cc2)cc1 [Example 8]    1

Data request, read-out MIC, for CCCCCCCCCCNc1cc[n+](CCCCCCC[n+]2ccc(NCCCCCCCCCC)cc2)cc1 [Example 65]
1

---

test system: E. coli AB1932-1; assay: In vitro antibacterial activity, MIC (modified Autotiter method); assay type: cell-based, Escherichia coli; settings: Escherichia coli, AB19321, 20 h, 18-20 hours at 37° C.; read-out: MIC E. coli AB1932-1
Measured Endpoint: MIC

The examples below pair each entry with its known result.
c1c[n+](CCCCC[n+]2ccc(NC3CCCCC3)cc2)ccc1NC1CCCCC1 [Example 35]    > 500 µg/mL
CCCCCCCCCCCCNc1cc[n+](CCCCCCCCC[n+]2ccc(NCCCCCCCCCCCC)cc2)cc1 [Example 73]    > 62.5 µg/mL

Data request, read-out MIC, for CCCCCCCCCCCCNc1cc[n+](CCCCCCCCCC[n+]2ccc(NCCCCCCCCCCCC)cc2)cc1 [Example 74]
> 62.5 µg/mL

---

system: S. pyogen. C203; assay: In vitro antibacterial activity, MIC (modified Autotiter method); type: cell-based, Streptococcus pyogenes; details: Streptococcus pyogenes, 20 h, 18-20 hours at 37° C.; read-out: MIC S. pyogen. C203
Measured Endpoint: MIC (mg/L)
# value in mg/L; strip the unit string

CCCCCCCCCCNc1cc[n+](CCCCCCCCCCCC[n+]2ccc(NCCCCCCCCCC)cc2)cc1 [Example 69]    3.9
CCCCC(CC)CNc1cc[n+](CCCCCC[n+]2ccc(NCC(CC)CCCC)cc2)cc1 (stereo not drawn) [Example 54]    0.625

Data request, read-out MIC, for Clc1ccc(Nc2cc[n+](CCCCCCCCCC[n+]3ccc(Nc4ccc(Cl)cc4)cc3)cc2)cc1 [Example 79B]
0.4

Data request, read-out MIC, for Clc1ccc(Nc2cc[n+](CCCCCCC[n+]3ccc(Nc4ccc(Cl)cc4)cc3)cc2)cc1 [Example 81]
0.49

Data request, read-out MIC, for CCCCCCCCCCCCNc1cc[n+](CCCCCC[n+]2ccc(NCCCCCCCCCCCC)cc2)cc1 [Example 70]
7.8

Data request, read-out MIC, for CCCCCCCNc1cc[n+](CCCCCCCCCCCCCC[n+]2ccc(NCCCCCCC)cc2)cc1 [Example 2]
1

Data request, read-out MIC, for CCCCCCCNc1cc[n+](CCCCC[n+]2ccc(NCCCCCCC)cc2)cc1 [Example 60]
1.95

Data request, read-out MIC, for CCCCC(CC)CNc1cc[n+](CCCCCCCCC[n+]2ccc(NCC(CC)CCCC)cc2)cc1 (stereo not drawn) [Example 57]
0.625

Data request, read-out MIC, for CCCCCCCCCNc1cc[n+](CCCCCCCCC[n+]2ccc(NCCCCCCCCC)cc2)cc1 [Example 50]
1.95

Data request, read-out MIC, for c1c[n+](CCCCCCCC[n+]2ccc(NC3CCCCC3)cc2)ccc1NC1CCCCC1 [Example 38]
0.93

Data request, read-out MIC, for CCCCCCCCCNc1cc[n+](CCCCCC[n+]2ccc(NCCCCCCCCC)cc2)cc1 [Example 47]
1

Data request, read-out MIC, for CCCCCCCNc1cc[n+](CCCCCCCCC[n+]2ccc(NCCCCCCC)cc2)cc1 [Example 24]
0.5

Data request, read-out MIC, for CCCCC(CC)CNc1cc[n+](CCCCCCCCCC[n+]2ccc(NCC(CC)CCCC)cc2)cc1 (stereo not drawn) [Example 58]
1.95

Data request, read-out MIC, for Clc1ccc(Nc2cc[n+](CCCCCCCC[n+]3ccc(Nc4ccc(Cl)cc4)cc3)cc2)cc1 [Example 78B]
0.2

Data request, read-out MIC, for CCCCCCCCCNc1cc[n+](CCCCCCCCCC[n+]2ccc(NCCCCCCCCC)cc2)cc1 [Example 51]
1.95

Data request, read-out MIC, for CCCCCCCCNc1cc[n+](CCCCCCCCC[n+]2ccc(NCCCCCCCC)cc2)cc1 [Example 44A]
0.5

Data request, read-out MIC, for CCCCCCCCNc1cc[n+](CCCCCCCC[n+]2ccc(NCCCCCCCC)cc2)cc1 [Example 11]
1

Data request, read-out MIC, for Nc1cc[n+](CCCC[n+]2ccc(N)cc2)cc1 [III, reference compound]
62.5

---

test system: C. albicans Wisc.; assay: In vitro antifungal activity, MIC (modified Autotiter method); format: cell-based, Candida albicans; conditions: Candida albicans, 20 h, 18-20 hours at 37° C.; read-out: MIC C. albicans Wisc.
Listed here: items and their measured MIC.
# value in µg/mL; strip the unit string

The examples below pair each entry with its known result.
CCCCCCNc1cc[n+](CCCCCCCC[n+]2ccc(NCCCCCC)cc2)cc1    3.9
CCCCCCNc1cc[n+](CCCCCCCCCC[n+]2ccc(NCCCCCC)cc2)cc1    3.9

Okay, next one:
Data request, read-out MIC, for Clc1ccc(Nc2cc[n+](CCCCCCCCC[n+]3ccc(Nc4ccc(Cl)cc4)cc3)cc2)cc1
3.9

---

system: S. pyogen. C203; test: In vitro antibacterial activity, MIC (modified Autotiter method); format: cell-based, Streptococcus pyogenes; conditions: Streptococcus pyogenes, 20 h, 18-20 hours at 37° C.; read-out: MIC S. pyogen. C203
Listed here: items and their measured MIC.
# value in µg/mL; strip the unit string

The examples below pair each entry with its known result.
CCCCCCCCCCNc1cc[n+](CCCCCC[n+]2ccc(NCCCCCCCCCC)cc2)cc1 [Example 64B]    1
CCCCCCCCCNc1cc[n+](CCCCCCC[n+]2ccc(NCCCCCCCCC)cc2)cc1    1

Enter reported MIC observed with S. pyogen. C203 for CCCCC(CC)CNc1cc[n+](CCCCCCCCCCCC[n+]2ccc(NCC(CC)CCCC)cc2)cc1 (stereo not drawn) [Example 41C]
0.5

Enter reported MIC observed with S. pyogen. C203 for CCCCCCCCNc1cc[n+](CCCCCCC[n+]2ccc(NCCCCCCCC)cc2)cc1
1

Enter reported MIC observed with S. pyogen. C203 for CCCCCCNc1cc[n+](CCCCCCCCCCCCCC[n+]2ccc(NCCCCCC)cc2)cc1
1

Enter reported MIC observed with S. pyogen. C203 for CCCCCCNc1cc[n+](CCCCC[n+]2ccc(NCCCCCC)cc2)cc1
0.98
